Test system: NIH3T3
Test method notes: qHTS assay to identify novel small-molecules to repurpose for Merkel cell carcinoma treatment (AID 1296009); also: nearly all actives have a fitted effect of over 60% in size
Measurement context: MCC and control cell lines, CellTiter-Glo viability, 72 h; series mostly up to 44.8 µM
Inconclusive results are not listed. Active and inactive are the calls of the source. Calls follow the shape of the dose curve; as a rule, active = well fitted inhibition curve with a large enough effect; inconclusive = small, poorly fitted or top-dose-only effect; inactive = flat fitted curve, though single readings scatter.

{"Molecule": "C/C=C/[C@@H]1C=C[C@@H]2C[C@H](C)CC[C@H]2[C@]1(C)/C(O)=C1/C(=O)[C@@H](CO)N(C)C1=O", "outcome": "inactive"}
{"Molecule": "C=CC(=O)N1CC(N2CCN(C(=O)CNc3cc(C4CC4)c(Cl)cc3O)CC2)C1", "outcome": "inactive"}
{"Molecule": "C=C1CC[C@@H]2[C@](C)(CO)[C@H](O)CC[C@@]2(C)[C@@H]1CC(O)C1=CCOC1=O (stereo partly specified)", "outcome": "inactive"}
{"Molecule": "C=C1C(=O)OC2C1CCC1(C)C(O)CC=C(C)C21 (stereo unspecified)", "outcome": "inactive"}
{"Molecule": "CCC(C)C1NC(=O)C(Cc2ccccc2)NC(=O)C(CCCCCC(=O)C(O)CO)NC(=O)C2CCCCN2C1=O (stereo unspecified)", "outcome": "inactive"}
{"Molecule": "CCn1c(-c2nonc2N)nc2c(C#CC(C)(C)O)ncc(OCC3CCCNC3)c21 (stereo unspecified)", "outcome": "inactive"}
{"Molecule": "Cn1nc(C(C)(C)C)cc1C(=O)N[C@@H](Cc1cccc(Cl)c1)C(=O)NCC#N", "outcome": "inactive"}
{"Molecule": "O=c1[nH]cnc2c([C@@H]3N[C@H](CO)[C@@H](O)[C@H]3O)c[nH]c12", "outcome": "inactive"}
{"Molecule": "C=C1CCC2C(C)(C)CCCC2(C)C1CC/C(C)=C\\CO (stereo unspecified)", "outcome": "inactive"}
{"Molecule": "NC(=O)c1cccc2[nH]c(-c3ccc(C4CCCN4)cc3F)nc12 (stereo unspecified)", "outcome": "inactive"}
{"Molecule": "CNCCCC1(c2ccccc2)OC(C)(C)c2ccccc21 (stereo unspecified)", "outcome": "inactive"}
{"Molecule": "O=C([C@@H](Cc1cccc(C(F)(F)F)c1)NS(=O)(=O)c1cc(F)c2c(c1)CCNC2)N1CCCC1", "outcome": "inactive"}
{"Molecule": "CC(=O)C1=C(O)C=C2Oc3c(C(C)=O)c(O)c(C)c(O)c3[C@]2(C)C1=O", "outcome": "inactive"}
{"Molecule": "COc1cc2ncc(-c3ccccc3)nc2cc1OC", "outcome": "inactive"}
{"Molecule": "COc1cc2ncnc(Nc3ccc(F)c(Cl)c3)c2cc1O", "outcome": "inactive"}
{"Molecule": "CCCCCCCOc1cc2c(cc1/C(C)=C/c1ccc(C(=O)O)cc1)C(C)(C)CCS2(=O)=O", "outcome": "inactive"}
{"Molecule": "O=C1Cc2c([nH]c3ccc(Br)cc23)-c2ncccc2N1", "outcome": "inactive"}
{"Molecule": "CN(C)C(CCOc1cccc2ccccc12)c1ccccc1 (stereo unspecified)", "outcome": "inactive"}
{"Molecule": "Cn1cc(C2=C(c3coc4ccccc34)C(=O)NC2=O)c2cc(Br)ccc21", "outcome": "inactive"}
{"Molecule": "COc1cc(N(C)CCN(C)C)c(N)cc1Nc1nccc(-c2cn(C)c3ccccc23)n1", "outcome": "inactive"}
{"Molecule": "O=c1[nH]c2ccccc2n1CCN1CCN(c2cccc(C(F)(F)F)c2)CC1", "outcome": "inactive"}

* * *

Test method notes: Drug repurposing screens with cells derived from glioblastoma tumor samples (AID 1345199); also: % is scaled to controls: 0 for no effect and ±100 for the full control effect; nearly all actives have a fitted effect of over 40% in size
Measurement context: GBM patient neurospheres viability, ATP luminescence, 48 h; at 46.1 µM (top of the series); tumour line C
Inconclusive results are not listed.
Reported endpoint: activity, negative = cell killing (%)

{"Compound": "NCCCC(=O)O", "Result number": -16.7}
{"Compound": "O=C1O[C@@H]2[C@@H](O)[C@H](O)O[C@@H]2[C@H]1O", "Result number": -14}
{"Compound": "O=S(=O)(O)Oc1ccc(C(c2ccc(OS(=O)(=O)O)cc2)c2ccccn2)cc1", "Result number": 10.6}
{"Compound": "CCCN(CC)C(CC)C(=O)Nc1c(C)cccc1C (stereo unspecified)", "Result number": -9.76}
{"Compound": "O=S(O)CO", "Result number": -1.44}
{"Compound": "CCOc1ccc(N=C(C)Nc2ccc(OCC)cc2)cc1", "Result number": -2.07}
{"Compound": "CN(C)Cc1ccccc1", "Result number": -2.01}
{"Compound": "CC(C(=O)O)c1ccc(C2CCCCC2)c2ccccc12 (stereo unspecified)", "Result number": -7.75}
{"Compound": "CCC(CN)CC(C)CCNCC(O)CNCC(C)CC(CC)CN (stereo unspecified)", "Result number": -0.671}
{"Compound": "Cn1nnnc1SCC1=C(C(=O)O)N2C(=O)[C@@H](NC(=O)[C@H](OC=O)c3ccccc3)[C@H]2SC1", "Result number": -8.9}
{"Compound": "COc1cc(C[C@@H]2NCCc3cc(O)c(O)cc32)cc(OC)c1OC", "Result number": -8.42}

* * *

Test system: HEK293
Test method notes: Cytotoxic Profiling of Annotated Libraries Using Quantitative High-Throughput Screening (AID 1296008); also: % is scaled to controls: 0 for no effect and ±100 for the full control effect; nearly all actives have a fitted effect of over 60% in size
Measurement context: Five cell lines viability, CellTiter-Glo ATP luminescence, 48-72 h; stronger effect = lower value
Results filed as inconclusive are left out.
Some compounds, each annotated with its measured max response.
Reported endpoint: max response (%)

{"Compound": "CN1CCN(Cc2ccc(NC(=O)Cc3ccc(Oc4cc(NC(=O)C5CC5)ncn4)cc3)cc2C(F)(F)F)CC1", "Reported endpoint": "max response", "Result number": -105}
{"Compound": "CC(=O)OC(C)(C)/C=C/C(=O)[C@](C)(O)[C@H]1C(O)C[C@@]2(C)[C@@H]3CC=C4[C@@H](C=C(O[C@@H]5O[C@H](CO)[C@@H](O)[C@H](O)[C@H]5O)C(=O)C4(C)C)[C@]3(C)C(=O)C[C@]12C (stereo not given in full)", "Reported endpoint": "max response", "Result number": -18.4}
{"Compound": "N#CC(CCCN1CCC(O)(c2ccc(Cl)cc2)CC1)(c1ccccc1)c1ccccc1", "Reported endpoint": "max response", "Result number": -108}
{"Compound": "C=C1CO[C@@]2(O[C@H]3CC4C5CC=C6C[C@@H](O)C[C@@H](O[C@@H]7OC[C@H](O)[C@H](O[C@@H]8OC[C@@H](O)[C@H](O)[C@H]8O)[C@H]7O[C@@H]7O[C@@H](C)[C@H](OC(C)=O)[C@@H](OC(C)=O)[C@H]7OC(C)=O)[C@]6(C)C5CC[C@]4(C)[C@@H]3[C@@H]2C)[C@@H](O)[C@H]1OC1OC(C)C(O)C(O)C1O (stereo not given in full)", "Reported endpoint": "max response", "Result number": -19.9}
{"Compound": "CC(=O)C1=C(O)C=C2Oc3c(C(C)=O)c(O)c(C)c(O)c3[C@]2(C)C1=O", "Reported endpoint": "max response", "Result number": 0.521}

* * *

Test method notes: Primary qHTS for inhibitors of nuclear receptor binding SET domain protein 2 (NSD2) in an isogenic RCH-ACV NSD2 p.E1099K mutant (9B) (AID 1645876); also: nearly all actives have a fitted effect of over 70% in size; also: potency is read from the fitted curve at half-maximal effect
Measurement context: RCH-ACV (leukaemia line) NSD2 E1099K (9B) viability, CellTiter-Glo, 72 h; series mostly up to 44.9 µM
Records with an inconclusive call do not appear. Activity calls are given as the source filed them. Calls come from the whole dose curve; as a rule, active = well fitted inhibition curve with a large enough effect; inconclusive = small, poorly fitted or top-dose-only effect; inactive = flat fitted curve, though single readings scatter.
Reported endpoint: Potency

{"Compound": "c1ccc(-c2ccc(CNc3nc(-c4ccccn4)nnc3-c3ccccc3)cc2)cc1", "Result": "2.95 µM (active)"}
{"Compound": "COC1CCN(C(=O)c2cc(Cc3n[nH]c(=O)c4ccccc34)ccc2F)CC1", "Result": "13.2 µM (active)"}
{"Compound": "CCOc1nc(NC(=O)Cc2cc(OC)ccc2OC)cc(N)c1C#N", "Result": "inactive"}
{"Compound": "CC(C)S(=O)(=O)Nc1ccc(F)c(C(=O)c2c[nH]c3ncc(-c4cccnc4)cc23)c1F", "Result": "4.09 µM (active)"}
{"Compound": "Fc1ccc(N2CCCCC2)c(NC(=S)c2ccncc2)c1", "Result": "10.3 µM (active)"}
{"Compound": "C=C(C)[C@@H]1CC=C(COC(=O)NC(=O)c2ncn3c(=O)n(C)nnc23)CC1", "Result": "inactive"}
{"Compound": "COc1cc(O)cc(OC2OC(CO)C(O)C(O)C2O)c1 (stereo not drawn)", "Result": "inactive"}
{"Compound": "COC1CC(=O)C23C(=O)NC(Cc4c[nH]c5ccccc45)C2C(C)C2(C)OC2C3/C=C/CC(C)CC1O (stereo not drawn)", "Result": "3.17 µM (active)"}
{"Compound": "CCC/C=C/C=C/C1CC(O)C2(O)C(=O)OCC12 (stereo not drawn)", "Result": "inactive"}
{"Compound": "CCC(C)CNCC(=O)N1CCC2SC=CC2C1COc1cccc(C)c1 (stereo not drawn)", "Result": "23 µM (active)"}
{"Compound": "O=S(=O)(NCc1cccc2ccccc12)c1cc(Cl)c(Oc2cccc(N3CCNCC3)c2)s1", "Result": "7.28 µM (active)"}
{"Compound": "COC1CC/C=C(\\C)C(=O)Nc2cc(O)cc(c2)CC(C)CC(OC)C(O)C(C)/C=C(\\C)C1OC(N)=O (stereo not drawn)", "Result": "2.52 µM (active)"}
{"Compound": "CC(C)c1ccccc1OC(=O)NCCc1ccc2ccccc2c1", "Result": "inactive"}
{"Compound": "CCCC(CCC)C(=O)Nc1ccn([C@@H]2O[C@H](CO)[C@@H](O)C2(F)F)c(=O)n1", "Result": "1.48 µM (active)"}
{"Compound": "CC(=O)NC(C(=O)O[C@H]1CCC(C)(C)[C@@H]2CC=C3C(=O)OCC3(O)[C@@]12C)C(C)C (stereo partly drawn)", "Result": "8.01 µM (active)"}
{"Compound": "COc1cc2nc(C3CC3)nc(N3CCN(c4ccccc4OC)CC3)c2cc1OC", "Result": "16.3 µM (active)"}
{"Compound": "CC(=O)N[C@H]1[C@H](O[C@H]2CC[C@@]3(C)C(CC[C@]4(C)C3CC=C3C5CC(C)(C)CC[C@]5(C(=O)O)C(O)C[C@]34C)C2(C)C)O[C@H](CO[C@@H]2O[C@H](C)[C@H](O)[C@H](O)[C@H]2O[C@@H]2OC[C@@H](O)[C@H](O)[C@H]2O)[C@@H](O)[C@@H]1O (stereo partly drawn)", "Result": "2.45 µM (active)"}
{"Compound": "C=C1CC(=O)C2OC2(C)CC2OC(=O)C(=C)C2C(O)C1OC(=O)/C(C)=C\\C (stereo not drawn)", "Result": "3.19 µM (active)"}
